Taken from ChEMBL document CHEMBL3779815.

Tested on: Shigella boydii
Assay: Antibacterial activity against Shigella boydii clinical isolate after 18 to 24 hrs by micro-dilution method
Format: functional
Under this convention, class 1 denotes MIC strictly below 20 µg/mL and class 0 denotes MIC at or above 20 µg/mL.

**Q:** Does the reported MIC of the following compound sit strictly below 20 µg/mL? COc1cc(OC)c2c(=O)cc(-c3ccc(OCc4cn(-c5ccc(F)cc5Cl)nn4)c(OC)c3)oc2c1
**A:** class 0

**Q:** Please let me know if COc1cc(O)c(C(=O)/C=C/c2ccc(OCc3cn(-c4ccc(F)cc4F)nn3)c(OC)c2)c(OC)c1 shows MIC below 20 µg/mL.
**A:** class 1

**Q:** hey, is MIC for COc1cc(O)c(C(=O)/C=C/c2ccc(OCc3cn(-c4ccccc4Cl)nn3)c(OC)c2)c(OC)c1 lower than 20 µg/mL or not?
**A:** class 1

**Q:** Given COc1cc(OC)c2c(=O)cc(-c3ccc(OCc4cn(-c5ccc(F)c(Cl)c5)nn4)c(OCc4cn(-c5ccc(F)c(Cl)c5)nn4)c3)oc2c1 , is recorded MIC strictly lower than 20 µg/mL?
**A:** class 0

**Q:** Decide: MIC of COc1cc(O)c(C(=O)/C=C/c2ccc(OCc3cn(-c4ccccc4Cl)nn3)c(OCc3cn(-c4ccccc4Cl)nn3)c2)c(OC)c1 strictly below 20 µg/mL?
**A:** class 0

**Q:** is_below(MIC, 20 µg/mL) for COc1cc(OC)c2c(=O)cc(-c3ccc(OCc4cn(-c5ccc(F)cc5F)nn4)c(OC)c3)oc2c1 ?
**A:** class 0

**Q:** Dear colleague, could you confirm whether MIC of COc1cc(OC)c2c(=O)cc(-c3ccc(OCc4cn(-c5ccc(Cl)cc5)nn4)c(OC)c3)oc2c1 falls below 20 µg/mL? Thanks.
**A:** class 0

**Q:** For this compound, is MIC lower than 20 µg/mL? COc1cc(OC)c2c(=O)cc(-c3ccc(OCc4cn(-c5ccccc5Cl)nn4)c(OC)c3)oc2c1
**A:** class 0

**Q:** is_below(MIC, 20 µg/mL) for COc1cc(O)c(C(=O)/C=C/c2ccc(OCc3cn(-c4ccc(F)cc4Cl)nn3)c(OC)c2)c(OC)c1 ?
**A:** class 1

**Q:** Does the reported MIC of COc1cc(OC)c2c(=O)cc(-c3ccc(OCc4cn(-c5ccc(F)cc5Cl)nn4)c(OCc4cn(-c5ccc(F)cc5Cl)nn4)c3)oc2c1 stay below 20 µg/mL?
**A:** class 0

**Q:** Would you kindly verify if MIC of COc1cc(OC)c2c(=O)cc(-c3ccc(OCc4cn(-c5ccc(Cl)cc5)nn4)c(OCc4cn(-c5ccc(Cl)cc5)nn4)c3)oc2c1 is strictly less than 20 µg/mL?
**A:** class 0

**Q:** # strict comparison: is reported MIC < 20 µg/mL? input = COc1cc(O)c(C(=O)/C=C/c2ccc(OCc3cn(-c4ccc(Cl)cc4)nn3)c(OCc3cn(-c4ccc(Cl)cc4)nn3)c2)c(OC)c1
**A:** class 0

**Q:** Input COc1cc(O)c(C(=O)/C=C/c2ccc(OC)c(OCc3cn(-c4ccc(F)c(Cl)c4)nn3)c2)c(OC)c1 ; condition: MIC strictly below 20 µg/mL. Does it hold?
**A:** class 0

**Q:** Given COc1cc(O)c(C(=O)/C=C/c2ccc(OCc3cn(-c4ccc(F)c(Cl)c4)nn3)c(OC)c2)c(OC)c1 , is recorded MIC strictly lower than 20 µg/mL?
**A:** class 0

**Q:** Record COc1cc(O)c(C(=O)/C=C/c2ccc(OCc3cn(-c4ccc(Cl)cc4)nn3)c(OC)c2)c(OC)c1 : is its MIC strictly below 20 µg/mL?
**A:** class 0

**Q:** is_below(MIC, 20 µg/mL) for COc1cc(O)c(C(=O)/C=C/c2ccc(OCc3cn(-c4ccc(F)c(Cl)c4)nn3)c(OCc3cn(-c4ccc(F)c(Cl)c4)nn3)c2)c(OC)c1 ?
**A:** class 0

---

Kindly supply the reported MIC values for the records listed here.
Test system: Shigella boydii
Assay: Antibacterial activity against Shigella boydii clinical isolate after 18 to 24 hrs by micro-dilution method
Assay type: functional

**Q:** Fill in: MIC of COc1cc(O)c(C(=O)/C=C/c2ccc(OC)c(OCc3cn(-c4ccc(F)cc4F)nn3)c2)c(OC)c1 is ___
**A:** 12.5 µg/mL

**Q:** Query: MIC; subject: COc1cc(OC)c2c(=O)cc(-c3ccc(OCc4cn(-c5ccc(F)c(Cl)c5)nn4)c(OC)c3)oc2c1
**A:** > 100 µg/mL

**Q:** # get_value(readout='MIC', item= COc1cc(OC)c2c(=O)cc(-c3ccc(OCc4cn(-c5ccc(F)cc5F)nn4)c(OCc4cn(-c5ccc(F)cc5F)nn4)c3)oc2c1 )
**A:** > 100 µg/mL

**Q:** Field request: MIC | item: COc1cc(O)c(C(=O)/C=C/c2ccc(OCc3cn(-c4ccc(F)cc4F)nn3)c(OCc3cn(-c4ccc(F)cc4F)nn3)c2)c(OC)c1
**A:** 6.25 µg/mL

**Q:** Could you share which MIC value was measured for COc1cc(OC)c2c(=O)cc(-c3ccc(OCc4cn(-c5ccccc5Cl)nn4)c(OCc4cn(-c5ccccc5Cl)nn4)c3)oc2c1 ?
**A:** > 100 µg/mL

**Q:** Query (molecule): COc1cc(O)c(C(=O)/C=C/c2ccc(OC)c(OCc3cn(-c4ccc(F)cc4Cl)nn3)c2)c(OC)c1 ; field requested: MIC
**A:** > 100 µg/mL

**Q:** Consider the molecule COc1cc(O)c(C(=O)/C=C/c2ccc(OCc3cn(-c4ccc(F)cc4Cl)nn3)c(OCc3cn(-c4ccc(F)cc4Cl)nn3)c2)c(OC)c1 and give its measured MIC.
**A:** > 100 µg/mL

**Q:** Look up MIC: COc1cc(O)c(C(=O)/C=C/c2ccc(OC)c(OCc3cn(-c4ccccc4Cl)nn3)c2)c(OC)c1
**A:** 12.5 µg/mL

**Q:** Given the entry COc1cc(O)c(C(=O)/C=C/c2ccc(OC)c(OCc3cn(-c4ccc(Cl)cc4)nn3)c2)c(OC)c1 , report its measured MIC.
**A:** > 100 µg/mL

---

System: Aspergillus niger
Assay: Antifungal activity against Aspergillus niger clinical isolate after 18 to 24 hrs by micro-dilution method
Format: functional
Answer each item with its documented MIC.
Lab book: enter the figure in µg/mL, no units written.

**Q:** Need MIC, item COc1cc(O)c(C(=O)/C=C/c2ccc(OC)c(OCc3cn(-c4ccccc4Cl)nn3)c2)c(OC)c1
**A:** 12.5

**Q:** // lookup MIC for COc1cc(OC)c2c(=O)cc(-c3ccc(OCc4cn(-c5ccc(F)c(Cl)c5)nn4)c(OC)c3)oc2c1
**A:** 50

**Q:** // lookup MIC for COc1cc(OC)c2c(=O)cc(-c3ccc(OCc4cn(-c5ccc(Cl)cc5)nn4)c(OC)c3)oc2c1
**A:** 50

**Q:** Can you share its MIC? I mean this compound: COc1cc(O)c(C(=O)/C=C/c2ccc(OCc3cn(-c4ccc(F)c(Cl)c4)nn3)c(OC)c2)c(OC)c1
**A:** 100

**Q:** Request the reported MIC associated with COc1cc(O)c(C(=O)/C=C/c2ccc(OC)c(OCc3cn(-c4ccc(Cl)cc4)nn3)c2)c(OC)c1
**A:** 25

---

System: Aspergillus niger
Assay: Antifungal activity against Aspergillus niger clinical isolate after 18 to 24 hrs by micro-dilution method
Format: functional
Readout label: MIC (µg/mL)
// return numeric value only (unit: µg/mL, not printed)

**Q:** # MIC lookup, item COc1cc(O)c(C(=O)/C=C/c2ccc(OC)c(OCc3cn(-c4ccc(F)cc4F)nn3)c2)c(OC)c1
**A:** 50

**Q:** Quick check: MIC of COc1cc(O)c(C(=O)/C=C/c2ccc(OCc3cn(-c4ccc(F)cc4F)nn3)c(OCc3cn(-c4ccc(F)cc4F)nn3)c2)c(OC)c1 ?
**A:** 25

**Q:** Look up MIC: COc1cc(OC)c2c(=O)cc(-c3ccc(OCc4cn(-c5ccc(F)cc5Cl)nn4)c(OCc4cn(-c5ccc(F)cc5Cl)nn4)c3)oc2c1
**A:** 12.5

**Q:** Please look up its MIC: COc1cc(OC)c2c(=O)cc(-c3ccc(OCc4cn(-c5ccc(F)cc5Cl)nn4)c(OC)c3)oc2c1
**A:** 12.5

**Q:** Name the reported MIC value associated with the molecule OC(Cn1cncn1)(Cn1cncn1)c1ccc(F)cc1F [FLUCONAZOLE]
**A:** 2

---

Test system: Escherichia coli
Assay: Antibacterial activity against Escherichia coli ATCC 35218 after 18 to 24 hrs by micro-dilution method
Format: functional
Readout label: MIC (µg/mL)
Could you give me the number in µg/mL? Just the number is fine.

**Q:** Reported MIC for COc1cc(OC)c2c(=O)cc(-c3ccc(OCc4cn(-c5ccc(Cl)cc5)nn4)c(OCc4cn(-c5ccc(Cl)cc5)nn4)c3)oc2c1 : what is it?
**A:** 6.25

**Q:** // query MIC value for entry COc1cc(OC)c2c(=O)cc(-c3ccc(OCc4cn(-c5ccccc5Cl)nn4)c(OC)c3)oc2c1
**A:** 100

**Q:** Requested field: MIC. Item: COc1cc(O)c(C(=O)/C=C/c2ccc(OCc3cn(-c4ccc(F)cc4F)nn3)c(OC)c2)c(OC)c1
**A:** 6.25

**Q:** Dear colleague, I am looking for the recorded MIC of the following compound: COc1cc(O)c(C(=O)/C=C/c2ccc(OCc3cn(-c4ccc(Cl)cc4)nn3)c(OCc3cn(-c4ccc(Cl)cc4)nn3)c2)c(OC)c1
**A:** 100

**Q:** May I ask what MIC has been recorded for COc1cc(O)c(C(=O)/C=C/c2ccc(OCc3cn(-c4ccc(F)c(Cl)c4)nn3)c(OC)c2)c(OC)c1 ?
**A:** 50
